Provide the recorded MEC for the entries that follow.
- Tested on: A. fumigatus MMX 6781 ATCC MYA-4609
- protocol_notes: MIC/MEC assay (CLSI microdilution)
- Type: cell-based
- condition: RPMI plus 0.002% Tween-80; 48 hr
Numbered stars: 1 amine (or outer) side, 2 acyl side, 3 side chain; on linkers, the order of the positions; unused ones are H or OH. Square brackets hold non-standard residues; d marks the D form. Peptide text beside a SMILES is read from it. X1 = CC(C)N1CCN(c2ccc(-c3cccc(C[C@@H](C(=O)[*:2])N(C)[*:1])c3)cc2)CC1; X26 = CC1CCN(c2cnc(-c3cccc(C[C@@H](C(=O)[*:2])N(C)[*:1])c3)cn2)CC1; X7 = CC(C)N1CCN(c2ccc(-c3cccc(C[C@H](N[*:1])C(=O)[*:2])c3)cc2)CC1; X10 = CN([C@@H](Cc1cccc(-c2ccc(N3CCNCC3)nc2)c1)C(=O)[*:2])[*:1]; Hmp(2R,3S) = CC[C@H](C)[C@@H](O)C(=O)O; NMeVal(β-OH) = CN[C@H](C(=O)O)C(C)(C)O; NMeV = CN[C@H](C(=O)O)C(C)C
Hi! Could you send only the number? It should be in µg/mL, unit omitted.

Bench note: what MEC did CC[C@H](C)[C@@H]1NC(=O)[C@@H]2CCCN2C(=O)[C@H](Cc2cccc(-c3cnc(N4CCC(C)CC4)cn3)c2)N(C)C(=O)[C@H](Cc2ccccc2)NC(=O)[C@H](C(C)C)N(C)C(=O)[C@@H]([C@@H](C)CC)OC(=O)[C@H](C(C)(C)O)N(C)C(=O)[C@H](CC(C)C)NC(=O)[C@H](C(C)C)N(C)C1=O [Compound 11] (cyclo(F[X26]PI[NMeV]L[NMeVal(β-OH)][Hmp(2R,3S)][NMeV])) show?
8

Bench note: what MEC did CC[C@H](C)[C@@H]1NC(=O)[C@@H]2CCCN2C(=O)[C@H](Cc2cccc(-c3ccc(N4CCNCC4)nc3)c2)N(C)C(=O)[C@H](Cc2ccccc2)NC(=O)[C@H](C(C)C)N(C)C(=O)[C@@H]([C@@H](C)CC)OC(=O)[C@H](C(C)(C)O)N(C)C(=O)[C@H](CC(C)C)NC(=O)[C@H](C(C)C)N(C)C1=O [Compound 30] (cyclo(F[X10]PI[NMeV]L[NMeVal(β-OH)][Hmp(2R,3S)][NMeV])) show?
1

Bench note: what MEC did CC[C@H](C)[C@@H]1NC(=O)[C@@H]2CCCN2C(=O)[C@H](Cc2cccc(-c3ccc(N4CCN(C(C)C)CC4)cc3)c2)N(C)C(=O)[C@H](Cc2cccc(-c3ccc(N4CCN(C(C)C)CC4)cc3)c2)NC(=O)[C@H](C(C)C)N(C)C(=O)[C@@H]([C@@H](C)CC)OC(=O)[C@H](C(C)(C)O)N(C)C(=O)[C@H](CC(C)C)NC(=O)[C@H](C(C)C)N(C)C1=O [Compound 31] (cyclo(I[NMeV]L[NMeVal(β-OH)][Hmp(2R,3S)][NMeV][X7][X1]P)) show?
1

###

- System: C. albicans MMX 2000 ATCC 10231
- protocol_notes: MIC assay (CLSI microdilution)
- Assay type: cell-based
- condition: Candida albicans, ATCC10231, RPMI plus 0.002% Tween-80; read-out: MIC
Numbered stars: 1 amine (or outer) side, 2 acyl side, 3 side chain; on linkers, the order of the positions; unused ones are H or OH. Square brackets hold non-standard residues; d marks the D form. Peptide text beside a SMILES is read from it. X3 = CN1CCN(c2ccc(-c3cccc(C[C@@H](C(=O)[*:2])N(C)[*:1])c3)cn2)CC1; X30 = CN([C@@H](Cc1cccc(-c2ccc(Cl)c(Cl)c2)c1)C(=O)[*:2])[*:1]; Hmp(2R,3S) = CC[C@H](C)[C@@H](O)C(=O)O; NMeVal(β-OH) = CN[C@H](C(=O)O)C(C)(C)O; NMeV = CN[C@H](C(=O)O)C(C)C
metric: MIC (µg/mL)
Hi! Could you send only the number? It should be in µg/mL, unit omitted.

Bench note: what MIC did CC[C@H](C)[C@@H]1NC(=O)[C@@H]2CCCN2C(=O)[C@H](Cc2cccc(-c3ccc(Cl)c(Cl)c3)c2)N(C)C(=O)[C@H](Cc2ccccc2)NC(=O)[C@H](C(C)C)N(C)C(=O)[C@@H]([C@@H](C)CC)OC(=O)[C@H](C(C)(C)O)N(C)C(=O)[C@H](CC(C)C)NC(=O)[C@H](C(C)C)N(C)C1=O [Compound 2] (cyclo(F[X30]PI[NMeV]L[NMeVal(β-OH)][Hmp(2R,3S)][NMeV])) show?
0.12

Bench note: what MIC did CC[C@H](C)[C@@H]1NC(=O)[C@@H]2CCCN2C(=O)[C@H](Cc2cccc(-c3ccc(N4CCN(C)CC4)nc3)c2)N(C)C(=O)[C@H](Cc2ccccc2)NC(=O)[C@H](C(C)C)N(C)C(=O)[C@@H]([C@@H](C)CC)OC(=O)[C@H](C(C)(C)O)N(C)C(=O)[C@H](CC(C)C)NC(=O)[C@H](C(C)C)N(C)C1=O [Compound 20] (cyclo(F[X3]PI[NMeV]L[NMeVal(β-OH)][Hmp(2R,3S)][NMeV])) show?
0.008
